Entries and their Solubility values follow.
# assay_info: Solubility in PBS
# Type: physicochemical
# conditions_used: Solubility (uM)
Reply with just the number (in µM).

Worked cases, Solubility given:
| molecule | Solubility [µM] |
| --- | --- |
| CC(=O)N1CCC[C@]12CC=CCCCC1(CCCC=CCCCOC(=O)N3CC[C@@](C(=O)N[C@@H](Cc4ccccc4C(F)(F)F)C(=O)N[C@@H](Cc4csc5ccccc45)C(=O)N[C@@H](CCC(N)=O)C(N)=O)(C3)NC(=O)[C@H](CC(N)=O)NC(=O)[C@H](Cc3ccccc3)NC(=O)[C@H](C)NC(=O)[C@H](C)NC(=O)[C@H](CC(=O)O)NC(=O)[C@H](CC(=O)O)NC1=O)NC(=O)[C@H](CC(C)(C)C)NC(=O)[C@H](CC(=O)O)NC2=O (stereo partly drawn) | 49 |
| CC[C@H](C)[C@@H]1NC(=O)[C@H](CC(=O)O)NC(=O)[C@]2(CC=CCCCC3(CCCC=CCCCCCC[C@@](C)(C(=O)N[C@@H](Cc4ccccc4)C(=O)N[C@@H](Cc4csc5ccccc45)C(=O)N[C@@H](Cc4c[nH]cn4)C(N)=O)NC(=O)[C@H](CCC(N)=O)NC(=O)[C@H](Cc4cccs4)NC(=O)[C@H](C)NC(=O)[C@H](C)NC(=O)[C@H](CC(=O)O)NC(=O)[C@H](CC(=O)O)NC3=O)NC1=O)CCCN2C(C)=O (stereo partly drawn) | 36 |

Solubility for CC(=O)N1CCC[C@]12CC=CCCCC1(CCCC=CCCCOC(=O)N3CC[C@@](C(=O)N[C@@H](Cc4ccccc4Cl)C(=O)N[C@@H](Cc4csc5ccccc45)C(=O)N[C@@H](CCC(N)=O)C(N)=O)(C3)NC(=O)[C@H]([C@@H](C)O)NC(=O)[C@H](Cc3ccccc3)NC(=O)[C@H](C)NC(=O)[C@H](C)NC(=O)[C@H](CC(=O)O)NC(=O)[C@H](CC(=O)O)NC1=O)NC(=O)[C@H](CC(C)(C)C)NC(=O)[C@H](CC(=O)O)NC2=O (stereo partly drawn) ? 47

* * *

# study_target: full-length beta-Catenin (Uniprot ID P35222) (Homo sapiens)
# Construct: 10 nM full-length beta-Catenin (Uniprot ID P35222)
# Sequence (P35222 whole entry): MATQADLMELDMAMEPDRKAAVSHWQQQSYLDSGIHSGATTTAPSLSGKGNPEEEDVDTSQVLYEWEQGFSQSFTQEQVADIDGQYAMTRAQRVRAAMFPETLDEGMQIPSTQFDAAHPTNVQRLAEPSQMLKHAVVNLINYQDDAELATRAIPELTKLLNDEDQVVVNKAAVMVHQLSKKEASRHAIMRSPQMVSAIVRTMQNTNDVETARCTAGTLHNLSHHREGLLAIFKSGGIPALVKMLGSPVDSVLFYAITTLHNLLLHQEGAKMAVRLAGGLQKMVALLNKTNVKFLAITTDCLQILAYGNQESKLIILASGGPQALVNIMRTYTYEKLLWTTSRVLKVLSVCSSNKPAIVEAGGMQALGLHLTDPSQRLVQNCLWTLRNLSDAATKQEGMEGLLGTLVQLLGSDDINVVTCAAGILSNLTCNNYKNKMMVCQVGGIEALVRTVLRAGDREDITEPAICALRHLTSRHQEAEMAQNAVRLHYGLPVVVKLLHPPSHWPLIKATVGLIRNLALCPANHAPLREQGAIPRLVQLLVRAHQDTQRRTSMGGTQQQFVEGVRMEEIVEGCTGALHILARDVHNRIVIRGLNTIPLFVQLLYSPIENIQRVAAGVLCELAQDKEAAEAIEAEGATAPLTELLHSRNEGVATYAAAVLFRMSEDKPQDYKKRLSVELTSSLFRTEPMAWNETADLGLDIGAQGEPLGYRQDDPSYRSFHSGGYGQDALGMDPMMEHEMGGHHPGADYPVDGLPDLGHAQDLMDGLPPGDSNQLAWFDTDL
# assay_info: Fluorescence polarization IC50 (beta-catenin / 5FAM-TCF4 10-53 competition)
# Format: binding
# conditions_used: fluorescence polarization; read-out: beta-Catenin FP IC50
Recorded IC50, one value per entry.
Answer format: numeric, nM implied, no suffix.

Example entries begin here.
| compound | value_reported |
| --- | --- |
| CCCCCCSSCCOC(=O)C[C@@H]1NC(=O)[C@H](CC(=O)O)NC(=O)C2(CCCC=CCCCOC(=O)N3CC[C@@](C(=O)N[C@@H](Cc4ccsc4)C(=O)N[C@@H](Cc4csc5ccccc45)C(=O)N[C@@H](CCC(N)=O)C(N)=O)(C3)NC(=O)[C@H](CC(C)C)NC(=O)[C@H](Cc3ccccc3)NC(=O)[C@H](C)NC(=O)[C@H](C)NC1=O)CCCC=CC[C@]1(CCCN1C(C)=O)C(=O)N[C@@H](CC(=O)O)C(=O)N[C@@H](CC(C)(C)C)C(=O)N2 (stereo partly drawn) [I-1962] | 1600 |
| CC(=O)N1CCC[C@]12CC=CCCCC1(CCCC=CCCCOC(=O)N3CC[C@@](C(=O)N[C@@H](Cc4ccccc4C(F)(F)F)C(=O)N[C@@H](Cc4ccc5c(c4)CCC5)C(=O)N[C@@H](CO)C(N)=O)(C3)NC(=O)[C@H](CC(C)C)NC(=O)[C@H](Cc3ccccc3)NC(=O)[C@H](C)NC(=O)[C@H](C)NC(=O)[C@H](Cc3cccc(C(=O)O)c3)NC(=O)[C@H](CC(=O)O)NC1=O)NC(=O)[C@H](CC(C)(C)C)NC(=O)[C@H](CC(=O)O)NC2=O (stereo partly drawn) [I-2297] | 68 |
| CC[C@H](C)[C@@H]1NC(=O)[C@H](CC(=O)O)NC(=O)[C@]2(CC=CCCCC3(CCCC=CCCCCCC[C@@](C)(C(=O)N[C@@H](Cc4ccccc4)C(=O)N[C@@H](Cc4csc5ccccc45)C(=O)N[C@@H](Cc4c[nH]cn4)C(N)=O)NC(=O)[C@H](CCC(N)=O)NC(=O)[C@H](Cc4ccccc4)NC(=O)[C@H](C)NC(=O)[C@H](C)NC(=O)[C@H](CC(=O)O)NC(=O)[C@H](CC(=O)O)NC3=O)NC1=O)CCCN2C(C)=O (stereo partly drawn) [I-580] | 114 |
| CC(=O)N1CCC[C@]12CC=CCCCC1(CCCC=CCCCOC(=O)N3CC[C@@](C(=O)N[C@@H](Cc4ccccc4Cl)C(=O)N[C@@H](Cc4csc5ccccc45)C(=O)N[C@@H](CCC(N)=O)C(N)=O)(C3)NC(=O)[C@H](CC(C)C)NC(=O)[C@H](Cc3ccccc3)NC(=O)[C@H](C)NC(=O)[C@H](C)NC(=O)[C@H](Cc3ccc(F)c(C(=O)O)c3)NC(=O)[C@H](CC(=O)O)NC1=O)NC(=O)[C@H](CC(C)(C)C)NC(=O)[C@H](CC(=O)O)NC2=O (stereo partly drawn) [I-2203] | 9 |
| CC(=O)N1CCC[C@]12CC=CCCCC1(CCCC=CCCCCCC[C@@](C)(C(=O)N[C@@H](Cc3ccccc3)C(=O)N[C@@H](Cc3csc4ccccc34)C(=O)N[C@@H](CCC(N)=O)C(N)=O)NC(=O)[C@H](CC(N)=O)NC(=O)[C@H](Cc3ccccc3)NC(=O)[C@H](C)NC(=O)[C@H](C)NC(=O)[C@H](CC(=O)O)NC(=O)[C@H](CC(=O)O)NC1=O)NC(=O)[C@H](CCC(C)C)NC(=O)[C@H](CC(=O)O)NC2=O (stereo partly drawn) [I-547] | 43 |

If you can, please state the reported IC50 value of CC(=O)N1CCC[C@]12CC=CCCCC1(CCCC=CCCCCCC[C@@](C)(C(=O)N[C@@H](Cc3ccccc3)C(=O)N[C@@H](Cc3csc4ccccc34)C(=O)N[C@@H](CCC(N)=O)C(N)=O)NC(=O)[C@H](CCO)NC(=O)[C@H](Cc3ccccc3)NC(=O)[C@H](C)NC(=O)[C@H](C)NC(=O)[C@H](CCC(=O)O)NC(=O)[C@H](CC(=O)O)NC1=O)NC(=O)[C@H](CO)NC(=O)[C@H](CC(=O)O)NC2=O (stereo partly drawn) [I-1530] . 61

Which IC50 is reported for this compound? CC[C@H](C)[C@H](NC(=O)[C@H](CC(C)C)NC(=O)[C@H](CCC(N)=O)NC(=O)[C@H](Cc1csc2ccccc12)NC(=O)[C@H](Cc1ccccc1C(F)(F)F)NC(=O)[C@]12CCN(C1)C(=O)OCCCC=CCCCC1(CCCC=CC[C@]3(CCCN3C(C)=O)C(=O)N[C@@H](CC(=O)O)C(=O)N[C@@H](CC(C)(C)C)C(=O)N1)C(=O)N[C@@H](CC(=O)O)C(=O)N[C@@H](Cc1cccc(C(=O)O)c1)C(=O)N[C@@H](C)C(=O)N[C@@H](C)C(=O)N[C@@H](Cc1ccccc1)C(=O)N[C@@H](CC(C)C)C(=O)N2)C(N)=O (stereo partly drawn) [I-2385] 563

// returns reported IC50 for input CC(=O)N1CCC[C@]12CC=CCCCC1(CCCC=CCCCOC(=O)N3CC[C@@](C(=O)N[C@@H](Cc4ccccc4)C(=O)N[C@@H](Cc4csc5ccccc45)C(=O)N[C@@H](CCC(N)=O)C(N)=O)(C3)NC(=O)[C@H](Cc3c[nH]cn3)NC(=O)[C@H](Cc3ccccc3)NC(=O)[C@H](C)NC(=O)[C@H](C)NC(=O)[C@H](CCC(N)=O)NC(=O)[C@H](CC(=O)O)NC1=O)NC(=O)[C@H](CC(C)(C)C)NC(=O)[C@H](CCO)NC2=O (stereo partly drawn) [I-2439] 2760

Param item = CC(=O)N1CCC[C@]12CC=CCCCC1(CCCC=CCCCOC(=O)N3CC[C@@](C(=O)N[C@@H](Cc4ccccc4Br)C(=O)N[C@@H](Cc4csc5ccccc45)C(=O)N[C@@H](CCC(N)=O)C(N)=O)(C3)NC(=O)[C@H](CC(N)=O)NC(=O)[C@H](Cc3ccccc3)NC(=O)[C@H](C)NC(=O)[C@H](C)NC(=O)[C@H](CC(=O)O)NC(=O)[C@H](CC(=O)O)NC1=O)NC(=O)[C@H](CC(C)(C)C)NC(=O)[C@H](CC(=O)O)NC2=O (stereo partly drawn) [I-1323] ; retrieve measured IC50. 6

* * *

# study_target: full-length beta-Catenin (Uniprot ID P35222) (Homo sapiens)
# Construct: 10 nM full-length beta-Catenin (Uniprot ID P35222)
# assay_info: Fluorescence polarization IC50 (beta-catenin / 5FAM-TCF4 10-53 competition)
# Type: binding
# conditions_used: fluorescence polarization; read-out: beta-Catenin FP IC50
reported_endpoint: pIC50
Bear in mind: pIC50 is minus log10 of a mol/L concentration; give just that figure.

| molecule | value_reported |
| --- | --- |
| CC(=O)N1CCC[C@]12CC=CCCCC1(CCCC=CCCCOC(=O)N3CC[C@@](C(=O)N[C@@H](Cc4ccccc4Cl)C(=O)N[C@@H](Cc4csc5ccccc45)C(=O)N[C@H](C(N)=O)[C@@H](C)O)(C3)NC(=O)[C@H](CO)NC(=O)[C@H](Cc3ccccc3)NC(=O)[C@H](C)NC(=O)[C@H](C)NC(=O)[C@H](CC(=O)O)NC(=O)[C@H](CC(=O)O)NC1=O)NC(=O)[C@H](Cc1ccccc1)NC(=O)[C@H](CC(=O)O)NC2=O (stereo partly drawn) | 7.89 |
| CC(=O)N1CCC[C@]12CC=CCCCC1(CCCC=CCCCCCC[C@@](C)(C(=O)N[C@@H](Cc3ccccc3)C(=O)N[C@@H](Cc3csc4ccccc34)C(=O)N[C@@H](CCC(N)=O)C(N)=O)NC(=O)[C@H](C(C)C)NC(=O)[C@H](Cc3cccc(F)c3F)NC(=O)[C@H](C)NC(=O)[C@H](C)NC(=O)[C@H](CCC(=O)O)NC(=O)[C@H](CC(=O)O)NC1=O)NC(=O)[C@H](C)NC(=O)[C@H](CC(=O)O)NC2=O (stereo partly drawn) [I-390] | 5.47 |

Turning now to a further record.
Name the reported pIC50 value associated with the molecule CC(=O)N1CCC[C@]12CC=CCCCC1(CCCC=CCCCCCC[C@@](C)(C(=O)N[C@@H](Cc3cccc(F)c3)C(=O)N[C@@H](Cc3csc4ccccc34)C(=O)N[C@@H](CCC(N)=O)C(N)=O)NC(=O)[C@H](CCC(N)=O)NC(=O)[C@H](Cc3ccccc3)NC(=O)[C@H](C)NC(=O)[C@H](C)NC(=O)[C@H](Cc3c[nH]cn3)NC(=O)[C@H](CC(=O)O)NC1=O)NC(=O)[C@H](C)NC(=O)[C@H](CC(=O)O)NC2=O (stereo partly drawn) 5.60
